- Tested on: KNS-62 (Squamous Cell Lung Carcinoma)
- method-description: combination Emax (second highest fraction inhibited in the dose matrix, 72 h); higher = more inhibition; extreme values may be limits of the assay
Each entry below carries its reported combination Emax.
Keep it simple and answer with nothing but the number.

Consider the following illustrative entries.
compound="COc1nnc2ccc(N3CCC(c4ccc(OCCN5CCN(C)C(=O)[C@H]5C)cc4)CC3)nn12 [AZD5153] + Cc1c2c(nn1C)CSCc1cc(n(C)n1)CSc1cc(c3ccccc3c1)OCCCc1c(C(=O)O)n(C)c3c-2c(Cl)ccc13 [AZD5991] (first compound max 1 µM, 7x7, partner max 1 µM)" readout="combination Emax" reported_result=0.503
compound="CC(=O)Nc1cccc(-n2c(=O)n(C3CC3)c(=O)c3c(Nc4ccc(I)cc4F)n(C)c(=O)c(C)c32)c1 [Trametinib] + Cc1nc(-c2cn3c(n2)-c2ccc(-c4cnn(C(C)(C)C(N)=O)c4)cc2OCC3)n(C(C)C)n1 [Taselisib] (first compound max 1 µM, 7x7, partner max 10 µM)" readout="combination Emax" reported_result=0.827
compound="O=C(c1cc(Cc2n[nH]c(=O)c3ccccc23)ccc1F)N1CCN(C(=O)C2CC2)CC1 [Olaparib] + CC1(C)CCC(CN2CCN(c3ccc(C(=O)NS(=O)(=O)c4ccc(NCC5CCOCC5)c([N+](=O)[O-])c4)c(Oc4cnc5[nH]ccc5c4)c3)CC2)=C(c2ccc(Cl)cc2)C1 [Venetoclax] (first compound max 10 µM, 7x7, partner max 1 µM)" readout="combination Emax" reported_result=0.147

Which combination Emax is reported with KNS-62 (Squamous Cell Lung Carcinoma) for this entry: NC1(C(=O)N[C@@H](CCO)c2ccc(Cl)cc2)CCN(c2ncnc3[nH]ccc23)CC1 [Capivasertib] + COc1nnc2ccc(N3CCC(c4ccc(OCCN5CCN(C)C(=O)[C@H]5C)cc4)CC3)nn12 [AZD5153] (first compound max 10 µM, 7x7, partner max 1 µM) ?
0.809

Which combination Emax is reported with KNS-62 (Squamous Cell Lung Carcinoma) for this entry: CS(=O)(=O)CCNCc1ccc(-c2ccc3ncnc(Nc4ccc(OCc5cccc(F)c5)c(Cl)c4)c3c2)o1 [Lapatinib] + C[C@@H](Oc1cc(-c2cnn(C3CCNCC3)c2)cnc1N)c1c(Cl)ccc(F)c1Cl [Crizotinib] (first compound max 10 µM, 7x7, partner max 10 µM) ?
0.856

Which combination Emax is reported with KNS-62 (Squamous Cell Lung Carcinoma) for this entry: CN(C)CCCOc1ccc(-c2ccc3ncc4c(c3c2)n(C2CCOCC2)c(=O)n4C)cn1 [AZD0156] + C=CCn1c(=O)c2cnc(Nc3ccc(N4CCN(C)CC4)cc3)nc2n1-c1cccc(C(C)(C)O)n1 [AZD1775] (first compound max 1 µM, partner max 1 µM) ?
0.185

Which combination Emax is reported with KNS-62 (Squamous Cell Lung Carcinoma) for this entry: NC1(C(=O)N[C@@H](CCO)c2ccc(Cl)cc2)CCN(c2ncnc3[nH]ccc23)CC1 [Capivasertib] + C[C@@H]1COCCN1C2=NC(=NC(=C2)C3(CC3)[S@](=N)(=O)C)C4=C5C=CNC5=NC=C4 [AZD6738] (first compound max 10 µM, 7x7, partner max 10 µM) ?
0.738

----------
Each entry below carries its reported Bliss excess.
- Tested on: IGROV-1 (Ovarian Carcinoma);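 also: after 72 h of two-drug dosing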
- method-description: Bliss excess, mean over the matrix (fraction); higher = more synergy
Keep it simple and answer with nothing but the number.

Consider the following illustrative entries.
compound="Cn1cnc2c(F)c(Nc3ccc(Br)cc3Cl)c(C(=O)NOCCO)cc21 [Selumetinib] + C[C@@H]1COCCN1C2=NC(=NC(=C2)C3(CC3)[S@](=N)(=O)C)C4=C5C=CNC5=NC=C4 [AZD6738] (first compound max 10 µM, 7x7, partner max 10 µM)" readout="Bliss excess" reported_result=0.0211
compound="CC(=O)c1c(C)c2cnc(Nc3ccc(N4CCNCC4)cn3)nc2n(C2CCCC2)c1=O [Palbociclib] + Cn1cnc2c(F)c(Nc3ccc(Br)cc3Cl)c(C(=O)NOCCO)cc21 [Selumetinib] (first compound max 10 µM, 7x7, partner max 10 µM)" readout="Bliss excess" reported_result=0.0255

Lab note: next compound to report on.
Could you tell me which Bliss excess is on file for CN(CCO)CC[C@H](CSc1ccccc1)Nc1ccc(S(=O)(=O)NC(=O)c2ccc(N3CCC([C@@H](O)c4ccccc4-c4ccc(Cl)cc4)CC3)cc2)cc1S(=O)(=O)C(F)(F)F [AZD4320] + C=CCn1c(=O)c2cnc(Nc3ccc(N4CCN(C)CC4)cc3)nc2n1-c1cccc(C(C)(C)O)n1 [AZD1775] (first compound max 1 µM, partner max 1 µM) ?
0.0505

The values you see were collected from the supplement of paper PMC11061612.
